molecular target: L-selectin (Mus musculus, UniProt P18337); test: Blocking activity using selectin-IgG chimeras in a Selectin L competitive binding assay.
Sequence (P18337 whole entry): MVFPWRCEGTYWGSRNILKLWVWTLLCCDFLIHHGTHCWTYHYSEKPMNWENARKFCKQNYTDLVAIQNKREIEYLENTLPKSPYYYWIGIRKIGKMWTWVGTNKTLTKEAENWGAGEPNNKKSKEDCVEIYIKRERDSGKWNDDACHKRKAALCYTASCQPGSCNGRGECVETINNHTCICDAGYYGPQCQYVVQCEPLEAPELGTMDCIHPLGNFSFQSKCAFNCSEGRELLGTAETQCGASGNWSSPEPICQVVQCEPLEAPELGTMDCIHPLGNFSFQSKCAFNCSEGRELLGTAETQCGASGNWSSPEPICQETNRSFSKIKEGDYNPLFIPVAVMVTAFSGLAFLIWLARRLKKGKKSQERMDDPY
PROPERTY: IC50 (µM)
Expressed in µM, but write only the number.

Task: Look up and report measured IC50 for this entry: `CCCCCCCCCCCCCCC(CCCCCCCCCCCCCC)C(=O)N[C@H](CO[C@@H]1O[C@@H](C)[C@@H](O)[C@H](O)[C@@H]1O)C(=O)N[C@H](CCC(=O)O)C(=O)NC`
Output: 39

* * *

molecular target: P-selectin (Mus musculus, UniProt Q01102); test: Blocking activity using selectin-IgG chimeras in a Selectin P competitive binding assay.
Sequence (Q01102 whole entry): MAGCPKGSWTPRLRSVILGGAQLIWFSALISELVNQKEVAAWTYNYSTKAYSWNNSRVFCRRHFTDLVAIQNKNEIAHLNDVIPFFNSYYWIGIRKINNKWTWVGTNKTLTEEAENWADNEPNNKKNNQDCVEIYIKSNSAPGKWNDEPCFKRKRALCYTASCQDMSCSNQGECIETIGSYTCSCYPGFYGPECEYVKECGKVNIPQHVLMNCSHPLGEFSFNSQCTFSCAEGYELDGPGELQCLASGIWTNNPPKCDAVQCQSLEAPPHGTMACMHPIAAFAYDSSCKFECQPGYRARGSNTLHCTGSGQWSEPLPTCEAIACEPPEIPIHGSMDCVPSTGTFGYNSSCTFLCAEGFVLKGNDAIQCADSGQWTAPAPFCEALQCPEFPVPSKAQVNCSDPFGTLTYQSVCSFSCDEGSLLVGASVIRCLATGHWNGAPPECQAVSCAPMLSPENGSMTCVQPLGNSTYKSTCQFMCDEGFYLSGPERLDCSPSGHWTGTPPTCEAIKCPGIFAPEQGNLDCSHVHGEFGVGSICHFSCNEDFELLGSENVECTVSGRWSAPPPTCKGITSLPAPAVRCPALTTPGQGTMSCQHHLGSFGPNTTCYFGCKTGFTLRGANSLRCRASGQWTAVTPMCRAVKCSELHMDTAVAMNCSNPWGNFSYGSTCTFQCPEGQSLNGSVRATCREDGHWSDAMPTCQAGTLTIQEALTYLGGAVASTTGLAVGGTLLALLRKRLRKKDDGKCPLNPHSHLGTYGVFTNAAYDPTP
PROPERTY: IC50 (nM)
Provide only the numeric value, understood in nM.

Task: Supply measured IC50 of `CCCCCCCCCCCCCCC(CCCCCCCCCCCCCC)C(=O)N[C@H](CO[C@@H]1O[C@@H](C)[C@@H](O)[C@H](O)[C@@H]1O)C(=O)N[C@H](CCC(=O)O)C(=O)NC` in your reply.
Output: 1900
